# Assayed Target: vascular endothelial growth factor receptor 1 (VEGFR1)
# Test Details: SPR (Biacore X), VEGFR1 immobilised on a CM5 chip per paragraph 186; four sensorgrams with fitted curves
Assay Readout: pKd
Interpret pKd as the negative base-10 log of the concentration measured in mol/L.

Query bipodal peptide drawn as CQRPPR-GGG-[W--W hairpin]-G-RIPKNR on vascular endothelial growth factor receptor 1 (VEGFR1); pKd returned: 6.67
